Molecular target: T1, human prolactin receptor (PRLR) (human, UniProt P16471 25-622)
T1 sequence: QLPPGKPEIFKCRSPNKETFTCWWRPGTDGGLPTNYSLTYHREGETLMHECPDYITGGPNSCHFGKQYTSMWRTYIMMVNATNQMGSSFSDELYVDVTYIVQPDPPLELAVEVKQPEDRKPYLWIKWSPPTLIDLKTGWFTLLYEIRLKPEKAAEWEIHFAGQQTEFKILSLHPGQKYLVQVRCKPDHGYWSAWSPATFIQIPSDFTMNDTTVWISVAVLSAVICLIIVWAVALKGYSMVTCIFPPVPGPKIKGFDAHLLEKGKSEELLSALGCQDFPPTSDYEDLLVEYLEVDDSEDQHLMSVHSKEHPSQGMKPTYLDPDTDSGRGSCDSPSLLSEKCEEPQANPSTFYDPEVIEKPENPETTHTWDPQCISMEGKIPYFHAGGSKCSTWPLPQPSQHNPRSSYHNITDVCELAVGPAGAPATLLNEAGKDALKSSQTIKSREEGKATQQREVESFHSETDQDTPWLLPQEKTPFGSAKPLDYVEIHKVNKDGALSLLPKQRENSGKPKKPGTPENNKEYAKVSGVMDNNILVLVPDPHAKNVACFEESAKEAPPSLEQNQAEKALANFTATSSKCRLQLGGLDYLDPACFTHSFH
Test: cell-based or functional assay
test_readout: % Kill, T47D cells (%)
Field format: number, assumed %, no unit text.

Sample answers from the record:
H1H6960N-DM1 (antibody, human IgG1, V domains shown, DM1 conjugated through SMCC linker; attachment residues not stated) VH: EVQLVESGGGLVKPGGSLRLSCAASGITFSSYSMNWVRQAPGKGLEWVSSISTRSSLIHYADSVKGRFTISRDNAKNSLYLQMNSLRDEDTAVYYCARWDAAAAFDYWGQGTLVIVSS VL: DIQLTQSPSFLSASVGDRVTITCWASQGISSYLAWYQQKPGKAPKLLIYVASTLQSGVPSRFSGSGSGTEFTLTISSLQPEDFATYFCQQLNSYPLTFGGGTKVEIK | 71
H1H6762P-DM1 (antibody, human IgG1, V domains shown, DM1 conjugated through SMCC linker; attachment residues not stated) VH: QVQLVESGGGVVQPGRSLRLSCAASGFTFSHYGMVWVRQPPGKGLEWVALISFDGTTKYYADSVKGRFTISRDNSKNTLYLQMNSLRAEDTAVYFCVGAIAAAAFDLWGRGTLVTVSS VL: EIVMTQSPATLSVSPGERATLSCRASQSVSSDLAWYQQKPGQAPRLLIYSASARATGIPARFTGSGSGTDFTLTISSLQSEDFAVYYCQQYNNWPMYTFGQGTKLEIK | 80

Q. Need % Kill, T47D cells of H1H6975N-DM1 (antibody, human IgG1, V domains shown, DM1 conjugated through SMCC linker; attachment residues not stated) VH: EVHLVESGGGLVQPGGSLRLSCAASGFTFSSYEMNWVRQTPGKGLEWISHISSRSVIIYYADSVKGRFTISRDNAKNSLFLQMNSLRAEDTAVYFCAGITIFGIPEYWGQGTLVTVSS VL: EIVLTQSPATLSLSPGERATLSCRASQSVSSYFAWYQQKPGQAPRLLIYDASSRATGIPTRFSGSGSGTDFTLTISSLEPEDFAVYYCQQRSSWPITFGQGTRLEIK , thanks.
A. 80

Each recorded value in this set is attributed to patent US20180185504A1.
